Source of measurements: ChEMBL document CHEMBL1629659

# test_details: Drug concentration in Alveolar macrophage cells of healthy human at 150 mg, iv […] measured after 4 hrs of third postdose by urea dilution method
# Assay type: ADME, organism-based
# stated_conditions: read-out: Drug uptake
Numbered stars: 1 amine (or outer) side, 2 acyl side, 3 side chain; on linkers, the order of the positions; unused ones are H or OH. Bridge positions count the residues as written; N and C are the ends. Square brackets hold non-standard residues; d marks the D form. Peptide text beside a SMILES is read from it. * marks the point of attachment. hTyr(3S-OH,4S-OH,3'-OSO3H) = N[C@H](C(=O)O)[C@H](O)[C@@H](O)c1ccc(O)c(OS(=O)(=O)O)c1; Orn(4R-OH,5R-OH) = O=C([C@H](C[C@@H](O)[C@@H](O)N[*:3])N[*:1])[*:2]; Pro(3S-OH,4S-Me) = C[C@H]1CN[C@H](C(=O)O)[C@H]1O; X1 = CCCCCOc1ccc(-c2cc(-c3ccc(C(=O)*)cc3)no2)cc1; Gln(3R-OH) = NC(=O)C[C@@H](O)[C@H](N)C(=O)O; Hyp = O=C(O)[C@@H]1C[C@@H](O)CN1
observable: concentration at 4 h (ng/mL)
Output spec: scalar in ng/mL, unitless text.

Recall and state the measured concentration at 4 h for CCCCCOc1ccc(-c2cc(-c3ccc(C(=O)N[C@H]4C[C@@H](O)[C@@H](O)NC(=O)[C@@H]5[C@@H](O)[C@@H](C)CN5C(=O)[C@H]([C@H](O)CC(N)=O)NC(=O)[C@H]([C@H](O)[C@@H](O)c5ccc(O)c(OS(=O)(=O)O)c5)NC(=O)[C@@H]5C[C@@H](O)CN5C(=O)[C@H]([C@@H](C)O)NC4=O)cc3)no2)cc1 [MICAFUNGIN] (X1-[Orn(4R-OH,5R-OH)]T[Hyp][hTyr(3S-OH,4S-OH,3'-OSO3H)][Gln(3R-OH)][Pro(3S-OH,4S-Me)]; lactam 1-C) .
10400

----------
# test_details: Penetration ratio, ratio of AUC for human epithelial lining fluid to AUC for human plasma
# Assay type: ADME
# stated_conditions: read-out: Ratio AUC
Numbered stars: 1 amine (or outer) side, 2 acyl side, 3 side chain; on linkers, the order of the positions; unused ones are H or OH. Bridge positions count the residues as written; N and C are the ends. Square brackets hold non-standard residues; d marks the D form. Peptide text beside a SMILES is read from it. * marks the point of attachment. hTyr(3S-OH,4S-OH,3'-OSO3H) = N[C@H](C(=O)O)[C@H](O)[C@@H](O)c1ccc(O)c(OS(=O)(=O)O)c1; Orn(4R-OH,5R-OH) = O=C([C@H](C[C@@H](O)[C@@H](O)N[*:3])N[*:1])[*:2]; Pro(3S-OH,4S-Me) = C[C@H]1CN[C@H](C(=O)O)[C@H]1O; X1 = CCCCCOc1ccc(-c2cc(-c3ccc(C(=O)*)cc3)no2)cc1; Gln(3R-OH) = NC(=O)C[C@@H](O)[C@H](N)C(=O)O; Hyp = O=C(O)[C@@H]1C[C@@H](O)CN1
observable: Kp
Could you keep your reply to the number by itself?

Give a short answer stating reported Kp for CCCCCOc1ccc(-c2cc(-c3ccc(C(=O)N[C@H]4C[C@@H](O)[C@@H](O)NC(=O)[C@@H]5[C@@H](O)[C@@H](C)CN5C(=O)[C@H]([C@H](O)CC(N)=O)NC(=O)[C@H]([C@H](O)[C@@H](O)c5ccc(O)c(OS(=O)(=O)O)c5)NC(=O)[C@@H]5C[C@@H](O)CN5C(=O)[C@H]([C@@H](C)O)NC4=O)cc3)no2)cc1 [MICAFUNGIN] (X1-[Orn(4R-OH,5R-OH)]T[Hyp][hTyr(3S-OH,4S-OH,3'-OSO3H)][Gln(3R-OH)][Pro(3S-OH,4S-Me)]; lactam 1-C) .
5

----------
# test_details: AUC ( 0 to 24 hrs) in Alveolar macrophage cells of healthy human at 150 mg, iv […]
# Format: ADME, organism-based
# Parameters: time < 24 hr, dose 150 mg, route intravenous
Numbered stars: 1 amine (or outer) side, 2 acyl side, 3 side chain; on linkers, the order of the positions; unused ones are H or OH. Bridge positions count the residues as written; N and C are the ends. Square brackets hold non-standard residues; d marks the D form. Peptide text beside a SMILES is read from it. * marks the point of attachment. hTyr(3S-OH,4S-OH,3'-OSO3H) = N[C@H](C(=O)O)[C@H](O)[C@@H](O)c1ccc(O)c(OS(=O)(=O)O)c1; Orn(4R-OH,5R-OH) = O=C([C@H](C[C@@H](O)[C@@H](O)N[*:3])N[*:1])[*:2]; Pro(3S-OH,4S-Me) = C[C@H]1CN[C@H](C(=O)O)[C@H]1O; X1 = CCCCCOc1ccc(-c2cc(-c3ccc(C(=O)*)cc3)no2)cc1; Gln(3R-OH) = NC(=O)C[C@@H](O)[C@H](N)C(=O)O; Hyp = O=C(O)[C@@H]1C[C@@H](O)CN1
observable: AUC at 24 h (µg·h/mL)
Hi! Could you send only the number? It should be in µg·h/mL, unit omitted.

Let me know recorded AUC at 24 h for CCCCCOc1ccc(-c2cc(-c3ccc(C(=O)N[C@H]4C[C@@H](O)[C@@H](O)NC(=O)[C@@H]5[C@@H](O)[C@@H](C)CN5C(=O)[C@H]([C@H](O)CC(N)=O)NC(=O)[C@H]([C@H](O)[C@@H](O)c5ccc(O)c(OS(=O)(=O)O)c5)NC(=O)[C@@H]5C[C@@H](O)CN5C(=O)[C@H]([C@@H](C)O)NC4=O)cc3)no2)cc1 [MICAFUNGIN] (X1-[Orn(4R-OH,5R-OH)]T[Hyp][hTyr(3S-OH,4S-OH,3'-OSO3H)][Gln(3R-OH)][Pro(3S-OH,4S-Me)]; lactam 1-C) , thanks.
234

----------
# test_details: Drug concentration in healthy human epithelial lining fluid at 150 mg, iv QD measured after 12 hrs of third postdose by urea dilution method
# stated_conditions: read-out: Drug uptake
Numbered stars: 1 amine (or outer) side, 2 acyl side, 3 side chain; on linkers, the order of the positions; unused ones are H or OH. Bridge positions count the residues as written; N and C are the ends. Square brackets hold non-standard residues; d marks the D form. Peptide text beside a SMILES is read from it. * marks the point of attachment. hTyr(3S-OH,4S-OH,3'-OSO3H) = N[C@H](C(=O)O)[C@H](O)[C@@H](O)c1ccc(O)c(OS(=O)(=O)O)c1; Orn(4R-OH,5R-OH) = O=C([C@H](C[C@@H](O)[C@@H](O)N[*:3])N[*:1])[*:2]; Pro(3S-OH,4S-Me) = C[C@H]1CN[C@H](C(=O)O)[C@H]1O; X1 = CCCCCOc1ccc(-c2cc(-c3ccc(C(=O)*)cc3)no2)cc1; Gln(3R-OH) = NC(=O)C[C@@H](O)[C@H](N)C(=O)O; Hyp = O=C(O)[C@@H]1C[C@@H](O)CN1
observable: concentration at 12 h (ng/mL)
# output: bare number, implied unit ng/mL

Provide one value: measured concentration at 12 h of CCCCCOc1ccc(-c2cc(-c3ccc(C(=O)N[C@H]4C[C@@H](O)[C@@H](O)NC(=O)[C@@H]5[C@@H](O)[C@@H](C)CN5C(=O)[C@H]([C@H](O)CC(N)=O)NC(=O)[C@H]([C@H](O)[C@@H](O)c5ccc(O)c(OS(=O)(=O)O)c5)NC(=O)[C@@H]5C[C@@H](O)CN5C(=O)[C@H]([C@@H](C)O)NC4=O)cc3)no2)cc1 [MICAFUNGIN] (X1-[Orn(4R-OH,5R-OH)]T[Hyp][hTyr(3S-OH,4S-OH,3'-OSO3H)][Gln(3R-OH)][Pro(3S-OH,4S-Me)]; lactam 1-C)
440

----------
# test_details: Drug concentration in Alveolar macrophage cells of healthy human at 150 mg, iv […] measured after 24 hrs of third postdose by urea dilution method
# Assay type: ADME, organism-based
# stated_conditions: read-out: Drug uptake
Numbered stars: 1 amine (or outer) side, 2 acyl side, 3 side chain; on linkers, the order of the positions; unused ones are H or OH. Bridge positions count the residues as written; N and C are the ends. Square brackets hold non-standard residues; d marks the D form. Peptide text beside a SMILES is read from it. * marks the point of attachment. hTyr(3S-OH,4S-OH,3'-OSO3H) = N[C@H](C(=O)O)[C@H](O)[C@@H](O)c1ccc(O)c(OS(=O)(=O)O)c1; Orn(4R-OH,5R-OH) = O=C([C@H](C[C@@H](O)[C@@H](O)N[*:3])N[*:1])[*:2]; Pro(3S-OH,4S-Me) = C[C@H]1CN[C@H](C(=O)O)[C@H]1O; X1 = CCCCCOc1ccc(-c2cc(-c3ccc(C(=O)*)cc3)no2)cc1; Gln(3R-OH) = NC(=O)C[C@@H](O)[C@H](N)C(=O)O; Hyp = O=C(O)[C@@H]1C[C@@H](O)CN1
observable: concentration at 24 h (ng/mL)
Report as a plain number; the unit ng/mL is understood.

For CCCCCOc1ccc(-c2cc(-c3ccc(C(=O)N[C@H]4C[C@@H](O)[C@@H](O)NC(=O)[C@@H]5[C@@H](O)[C@@H](C)CN5C(=O)[C@H]([C@H](O)CC(N)=O)NC(=O)[C@H]([C@H](O)[C@@H](O)c5ccc(O)c(OS(=O)(=O)O)c5)NC(=O)[C@@H]5C[C@@H](O)CN5C(=O)[C@H]([C@@H](C)O)NC4=O)cc3)no2)cc1 [MICAFUNGIN] (X1-[Orn(4R-OH,5R-OH)]T[Hyp][hTyr(3S-OH,4S-OH,3'-OSO3H)][Gln(3R-OH)][Pro(3S-OH,4S-Me)]; lactam 1-C) , write its concentration at 24 h.
14600
